Test system: Calu-3
Procedure text: cell viability relative to DMSO; higher = less toxic
Particulars: 72 h; 10 nM
Readout kind: cell viability (%)
Unit % implied. Number only.

[
  {
    "Molecular string": "O=C1c2cccc3c2[C@H](CCC3)CN1[C@@H]1CN2CCC1CC2",
    "Unit symbol": "%",
    "Val": 99
  }
]

Reported cell viability for C[S+](C)CC[C@H](N)C(=O)O : what is it?
84.8

Reported cell viability for COC(=O)[C@H](CC(C)C)NC(=O)c1ccc(NC[C@@H](N)CS)cc1-c1cccc2ccccc12 : what is it?
104

Reported cell viability for CC(=O)[C@@]1(O)CC[C@H]2[C@@H]3C=C(Cl)C4=CC(=O)[C@@H]5C[C@@H]5[C@]4(C)[C@H]3CC[C@@]21C : what is it?
101

----------
Test system: Vero E6
Procedure text: cell viability relative to DMSO; higher = less toxic
Particulars: 72 h; 100 nM
Let's look at some molecules and their measured cell viability.
Unit % implied. Number only.

[
  {
    "Molecule": "N[C@@H](C(=O)O)c1nn[nH]n1 (racemic) [tetrazol-5-yl-glycine-(RS)]",
    "cell viability / %": 90.2
  },
  {
    "Molecule": "O=C(c1cc(S(=O)(=O)Nc2ccccc2F)c(F)cc1Cl)N1CCN2CCC[C@@H]2C1 [ABT-639]",
    "cell viability / %": 97.8
  }
]

Reported cell viability for O=C(Nc1ccccc1)c1ccccc1O [salicylanilide] : what is it?
98.4

Reported cell viability for CCN(CC)CCOc1ccc(/C(=C(\Cl)c2ccccc2)c2ccccc2)cc1 [clomifene] : what is it?
91.9

Reported cell viability for O=C(CBr)N1CC([N+](=O)[O-])([N+](=O)[O-])C1 [RRx-001] : what is it?
99.6

Reported cell viability for CN(C)CCCC(=O)Nc1ccc(C(=O)Nc2cccc(Nc3ncc(Cl)c(-c4c[nH]c5ccccc45)n3)c2)cc1 [THZ1-R] : what is it?
96.9

Reported cell viability for CC(C)Cc1ccc(C(C)C(=O)O)cc1 (centres undefined) [ibuprofen] : what is it?
95

Reported cell viability for CN(C)C(=O)c1cc2cnc(Nc3ccc(N4CCNCC4)cn3)nc2n1C1CCCC1 [ribociclib] : what is it?
98

Reported cell viability for O=S1(=O)CCN(CN2CCS(=O)(=O)NC2)CN1 [taurolidine] : what is it?
101

----------
Tested on: HepG2
Procedure text: cell viability relative to DMSO; higher = less toxic
Particulars: 72 h; 10000 nM
Let's look at some compounds and their measured cell viability.
Unit % implied. Number only.

The examples below pair each entry with its known result.
[
  {
    "Compound": "Cc1nc(N)sc1-c1ccnc(Nc2ccc(N3CCOCC3)cc2)n1",
    "Unit symbol": "%",
    "Val": 28.4
  },
  {
    "Compound": "CCC(c1ccccc1)c1c(O)c2ccccc2oc1=O (stereo not drawn)",
    "Unit symbol": "%",
    "Val": 108
  },
  {
    "Compound": "Cc1c(S(=O)(=O)O)oc2c1C(=O)C(=O)c1c-2ccc2c1CCCC2(C)C [sodium-tanshinone-II-A-sulfonate]",
    "Unit symbol": "%",
    "Val": 107
  },
  {
    "Compound": "COc1cc(C[C@H]2C(=O)OC[C@@H]2Cc2ccc(OC)c(OC)c2)ccc1O",
    "Unit symbol": "%",
    "Val": 21
  },
  {
    "Compound": "Cc1ccc(-c2ncc(Cl)cc2-c2ccc(S(C)(=O)=O)cc2)cn1",
    "Unit symbol": "%",
    "Val": 98.6
  }
]

Reported cell viability for O=C(O)Cc1cc2ccccc2nc1C(=O)O : what is it?
96.9

Reported cell viability for CC(=O)[C@@]1(O)CC[C@H]2[C@@H]3C[C@H](C)C4=CC(=O)CC[C@]4(C)[C@H]3CC[C@@]21C : what is it?
84.1

Reported cell viability for CN(C)Cc1cccc(N/C(=C2\C(=O)Nc3cc(C(N)=O)ccc32)c2ccccc2)c1 : what is it?
112

Reported cell viability for COc1ccc(-c2cc(=O)c3c(O)c(OC)c(O)cc3o2)cc1OC : what is it?
90.1

Reported cell viability for O=C(Nc1ccc(S(=O)(=O)Nc2nccs2)cc1)C(c1ccccc1)c1ccccc1 : what is it?
95.3

Reported cell viability for Nc1nc(O)c2nc(Br)n([C@@H]3O[C@@H]4COP(=O)(O)O[C@H]4[C@H]3O)c2n1 : what is it?
108
